test: Stability in human plasma assessed as parent compound remaining at 1 mM measured after 0.5 hrs by LC-MS/MS analysis; assay type: ADME, cell-free; details: read-out: Stability
Attribute Measured: remaining at 0.5 h (%)
Answers are plain numbers, in %.

Inquiry: Return reported remaining at 0.5 h; argument: Oc1ccc(-c2cc(-c3ccccc3Cl)nc3c2Cc2c(O)cccc2-3)cc1
Reply text: 99.3

----------
test: Protein binding in human plasma assessed as unbound fraction at 1 mM measured after 1 hr by LC-MS/MS analysis; assay type: ADME, cell-free
Attribute Measured: fraction unbound at 1 h
Give bare numbers.

Inquiry: Return reported fraction unbound at 1 h; argument: Oc1ccc(-c2cc(-c3ccccc3Cl)nc3c2Cc2c(O)cccc2-3)cc1
Reply text: 0.959

----------
assay: Toxicity in female ICR mouse assessed as mortality at 100 mg/kg, iv administered as single dose measured daily for 7 days (reference value: 0%); assay type: organism-based; conditions: in vivo
Attribute Measured: mortality at 168 h (%)
One number for each entry, in %.

Inquiry: Return reported mortality at 168 h; argument: Oc1ccc(-c2cc(-c3ccccc3Cl)nc3c2Cc2c(O)cccc2-3)cc1
Reply text: 0

----------
assay: Stability in rat plasma assessed as parent compound remaining at 1 mM measured after 0.25 hrs by LC-MS/MS analysis; type: ADME, cell-free; conditions: read-out: Stability
Attribute Measured: remaining at 0.25 h (%)
One number for each entry, in %.

Inquiry: Return reported remaining at 0.25 h; argument: Oc1ccc(-c2cc(-c3ccccc3Cl)nc3c2Cc2c(O)cccc2-3)cc1
Reply text: 102

----------
Consider the following compounds; for each one, report its pIC50.
test system: HeLa; experiment: Antiproliferative activity against human HeLa cells measured after 72 hrs by EZ-Cytox assay; type: functional, cell-based
Answers are plain numbers, as −log10 of the molar value.

Oc1ccc(-c2cc(-c3ccccc3C(F)(F)F)nc3c2Cc2cc(O)ccc2-3)cc1 5.68
Oc1cccc(-c2cc(-c3ccc(F)cc3)nc3c2Cc2c(O)cccc2-3)c1 5.17
Oc1ccc2c(c1)-c1nc(-c3ccc(Cl)cc3)cc(-c3ccccc3O)c1C2 5.34

Consider the following items and state reported pIC50 for each.
1. Oc1cccc(-c2cc(-c3cccc(Cl)c3)nc3c2Cc2cccc(O)c2-3)c1
2. Oc1cccc(-c2cc(-c3ccc(C(F)(F)F)cc3)nc3c2Cc2c(O)cccc2-3)c1

Reply text:
1. 5.34
2. 5.20

----------
Consider the following molecules; for each one, report its inhibition.
Target: UniProtKB P11387
Sequence (whole entry): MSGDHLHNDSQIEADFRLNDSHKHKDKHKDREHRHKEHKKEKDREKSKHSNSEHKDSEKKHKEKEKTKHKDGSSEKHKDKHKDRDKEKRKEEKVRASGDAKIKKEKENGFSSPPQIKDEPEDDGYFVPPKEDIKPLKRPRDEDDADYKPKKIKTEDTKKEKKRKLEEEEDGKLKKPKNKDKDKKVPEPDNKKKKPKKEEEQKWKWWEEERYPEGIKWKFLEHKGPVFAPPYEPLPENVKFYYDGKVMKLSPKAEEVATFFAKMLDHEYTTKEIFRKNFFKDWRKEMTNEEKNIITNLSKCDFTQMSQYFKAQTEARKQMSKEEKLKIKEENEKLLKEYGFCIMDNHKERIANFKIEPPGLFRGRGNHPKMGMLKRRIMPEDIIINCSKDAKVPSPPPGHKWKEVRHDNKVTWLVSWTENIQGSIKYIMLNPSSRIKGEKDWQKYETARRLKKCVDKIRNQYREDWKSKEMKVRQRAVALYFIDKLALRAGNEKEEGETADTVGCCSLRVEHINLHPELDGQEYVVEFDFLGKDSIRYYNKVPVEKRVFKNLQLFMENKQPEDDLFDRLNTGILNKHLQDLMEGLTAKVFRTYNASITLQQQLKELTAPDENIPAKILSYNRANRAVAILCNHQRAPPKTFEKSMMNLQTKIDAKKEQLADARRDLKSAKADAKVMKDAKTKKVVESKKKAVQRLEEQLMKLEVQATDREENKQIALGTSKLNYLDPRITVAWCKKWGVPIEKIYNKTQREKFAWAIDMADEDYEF
Assay: Inhibition of recombinant human topoisomerase 1-mediated relaxation of supercoiled pBR322 DNA at 100 uM measured after 30 mins by ethidium bromide staining based agarose gel electrophoresis relative to control
Answers are plain numbers, in %.

Check out these entries, answers already filled in.
Oc1ccc2c(c1)Cc1c(-c3ccccc3)cc(-c3ccccc3)nc1-2 2.1
Oc1cccc(-c2cc(-c3cccc(Cl)c3)nc3c2Cc2cccc(O)c2-3)c1 16.9
Oc1cccc(-c2cc(-c3ccccc3)nc3c2Cc2ccc(O)cc2-3)c1 0.5
Oc1ccccc1-c1cc(-c2ccccc2F)nc2c1Cc1c(O)cccc1-2 0
Oc1ccc(-c2cc(-c3cccc(C(F)(F)F)c3)nc3c2Cc2cccc(O)c2-3)cc1 2.3

Consider the following items and state reported inhibition for each.
1. Oc1ccc2c(c1)Cc1c(-c3ccccc3O)cc(-c3ccc(C(F)(F)F)cc3)nc1-2
2. Oc1cccc(-c2cc(-c3cccc(Cl)c3)c3c(n2)-c2c(O)cccc2C3)c1
3. Oc1ccc2c(c1)-c1nc(-c3ccc(C(F)(F)F)cc3)cc(-c3ccccc3O)c1C2
4. Oc1ccc(-c2cc(-c3cccc(F)c3)nc3c2Cc2cccc(O)c2-3)cc1

Reply text:
1: 0; 2: 8.9; 3: 0; 4: 1.1

Inquiry: Form field: inhibition recorded for Oc1cccc(-c2cc(-c3ccccc3)c3c(n2)-c2cccc(O)c2C3)c1 with UniProtKB P11387 (enter value)
Reply text: 0.4

----------
Target: DNA topoisomerase 1 (Homo sapiens)
Sequence (whole entry): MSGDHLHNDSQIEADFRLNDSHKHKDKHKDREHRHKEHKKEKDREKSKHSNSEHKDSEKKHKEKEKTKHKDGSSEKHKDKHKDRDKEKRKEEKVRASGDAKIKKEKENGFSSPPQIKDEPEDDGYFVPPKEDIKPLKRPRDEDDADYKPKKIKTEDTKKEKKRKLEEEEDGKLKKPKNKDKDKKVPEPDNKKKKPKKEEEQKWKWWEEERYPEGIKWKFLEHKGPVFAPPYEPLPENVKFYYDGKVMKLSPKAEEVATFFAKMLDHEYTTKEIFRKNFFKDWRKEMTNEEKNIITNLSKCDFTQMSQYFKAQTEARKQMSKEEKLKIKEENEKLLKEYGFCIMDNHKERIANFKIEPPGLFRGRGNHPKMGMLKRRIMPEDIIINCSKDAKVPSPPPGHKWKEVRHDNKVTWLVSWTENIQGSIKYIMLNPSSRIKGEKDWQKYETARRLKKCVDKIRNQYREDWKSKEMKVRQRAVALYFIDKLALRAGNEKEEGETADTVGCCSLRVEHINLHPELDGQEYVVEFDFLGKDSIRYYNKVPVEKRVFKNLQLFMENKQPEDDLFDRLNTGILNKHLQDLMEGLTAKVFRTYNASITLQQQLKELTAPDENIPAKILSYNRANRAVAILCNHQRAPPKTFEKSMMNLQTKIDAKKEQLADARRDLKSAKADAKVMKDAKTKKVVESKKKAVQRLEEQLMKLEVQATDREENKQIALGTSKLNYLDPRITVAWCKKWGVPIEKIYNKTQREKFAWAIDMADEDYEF
Assay: Inhibition of recombinant human topoisomerase 1-mediated relaxation of supercoiled pBR322 DNA at 100 uM measured after 30 mins by ethidium bromide staining based agarose gel electrophoresis relative to control
Attribute Measured: inhibition (%)
Numbers only, in %.

Check out these entries, answers already filled in.
Oc1ccc(-c2cc(-c3ccccc3F)nc3c2Cc2cccc(O)c2-3)cc1 11.7
Oc1ccc2c(c1)-c1nc(-c3cccc(C(F)(F)F)c3)cc(-c3ccccc3O)c1C2 0
Oc1ccc(-c2cc(-c3ccccc3F)nc3c2Cc2cc(O)ccc2-3)cc1 12.2
Oc1ccc(-c2cc(-c3ccccc3)nc3c2Cc2ccc(O)cc2-3)cc1 6
Oc1cccc(-c2cc(-c3ccc(Cl)cc3)nc3c2Cc2cc(O)ccc2-3)c1 0

Consider the following items and state reported inhibition for each.
1. Oc1ccc(-c2cc(-c3ccccc3Cl)c3c(n2)-c2cc(O)ccc2C3)cc1
2. Oc1ccc2c(c1)-c1nc(-c3cccc(F)c3)cc(-c3ccccc3O)c1C2
3. Oc1cccc(-c2cc(-c3cccc(C(F)(F)F)c3)nc3c2Cc2cccc(O)c2-3)c1
4. Oc1ccc(-c2cc(-c3ccccc3Cl)nc3c2Cc2c(O)cccc2-3)cc1
5. Oc1ccccc1-c1cc(-c2ccccc2F)nc2c1Cc1cccc(O)c1-2

Reply text:
4
0
0.2
0
0

----------
tested on: HeLa; test: Antiproliferative activity against human HeLa cells measured after 72 hrs by EZ-Cytox assay; assay type: functional, cell-based
Rule: measured IC50 below 4 µM gets t; anything equal to or greater than 4 µM gets f.

Worked set:
Oc1cccc(-c2cc(-c3ccccc3)nc3c2Cc2cc(O)ccc2-3)c1 f
Oc1ccccc1-c1cc(-c2ccccc2F)nc2c1Cc1cccc(O)c1-2 f
Oc1cccc(-c2cc(-c3ccc(C(F)(F)F)cc3)nc3c2Cc2cccc(O)c2-3)c1 f
Oc1ccc(-c2cc(-c3cccc(F)c3)nc3c2Cc2ccc(O)cc2-3)cc1 f
Oc1cccc(-c2cc(-c3cccc(C(F)(F)F)c3)nc3c2Cc2c(O)cccc2-3)c1 f

Inquiry: Dear reviewer, please state whether Oc1ccc(-c2cc(-c3ccccc3Cl)nc3c2Cc2cc(O)ccc2-3)cc1 has IC50 strictly beneath 4 µM.
Reply text: t

Inquiry: Dear reviewer, please state whether Oc1ccc(-c2cc(-c3ccccc3Cl)c3c(n2)-c2c(O)cccc2C3)cc1 has IC50 strictly beneath 4 µM.
Reply text: t

Inquiry: Dear reviewer, please state whether Oc1ccc(-c2cc(-c3ccc(Cl)cc3)c3c(n2)-c2cc(O)ccc2C3)cc1 has IC50 strictly beneath 4 µM.
Reply text: f

Inquiry: Dear reviewer, please state whether Oc1ccc(-c2cc(-c3ccccc3)nc3c2Cc2c(O)cccc2-3)cc1 has IC50 strictly beneath 4 µM.
Reply text: t

Inquiry: Dear reviewer, please state whether Oc1ccc(-c2cc(-c3ccc(Cl)cc3)nc3c2Cc2ccc(O)cc2-3)cc1 has IC50 strictly beneath 4 µM.
Reply text: t
